- target.under.test: T1, PHF20 PHD finger E662D (human, UniProt Q9BVI0 651-699, E662D)
- T1 chain (looked up): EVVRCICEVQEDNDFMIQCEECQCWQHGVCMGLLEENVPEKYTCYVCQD
- test.protocol: other fluorescence titration
Where no end group is shown, it is not given here. Me2 = dimethyl (dimethyl-lysine)
measured.attribute: Kd (µM)
Write the value in µM as a bare number.

For this binder ( ARTK(Me2)QTARKSTG (peptide, UniProt P68431 2-13, looked up) [H3K4me2 peptide (aa 1-12)] ), measured Kd is 3.6

Where do the numbers come from? From paper PMC5125728.
